Item-by-item account of pIC50
# assay-explanation: Cytotoxicity against human WI38 cells by MTT assay
# Type: cell-based
# measurement-parameters: WI-38
pIC50: −log10 of the molar value.
assay-metric: pIC50

compound: COc1c(C(=O)C2=CN3C(=CN=C2)Nc2ccccc23)c(O)cc2occc12
endpoint-value: 10.55
//
compound: COc1c(C(=O)c2cnc3nc4ccccc4n3c2)c(O)c(OC)c2occc12
endpoint-value: 10.33
//
compound: COc1c(C(=O)C2=CN3C(=CN=C2)Nc2ccccc23)c(O)c(OC)c2occc12
endpoint-value: 10.48
//
compound: COc1c(C(=O)/C=C/Nc2ccncc2)c(O)c(OC)c2occc12
endpoint-value: 10.60
//
compound: NCc1nc2ccccc2[nH]1
endpoint-value: 10.57
//
compound: COc1c(C(=O)C2=CN3C=CNC=C3N=C2)c(O)c(OC)c2occc12
endpoint-value: 10.43
//
compound: COc1c(C(=O)C2=CN3C=CC=CC3N=C2)c(O)c(OC)c2occc12 (stereo not given)
endpoint-value: 10.59
//
compound: COc1c(C(=O)C2=CN3OC(C)=NC3N=C2)c(O)c(OC)c2occc12 (stereo not given)
endpoint-value: 10.55
//
compound: COc1c(C(=O)C2=CN3C=CSC3N=C2)c(O)c(OC)c2occc12 (stereo not given)
endpoint-value: 10.55
//
compound: COc1c2occc2c(OC)c2c(=O)c(C=O)coc12
endpoint-value: 10.49

----------
# System: HCV NS3-4A protease
# assay-explanation: Therapeutic index, ratio of CC50 for human hepatocytes to IC50 for HCV NS3-4A protease
# Assay type: cell-based, Hepatocyte
# measurement-parameters: read-out: Ratio CC50/IC50
Measured selectivity ratio accompanies every entry in the list below.

compound: COc1c2occc2c(OC)c2c(=O)c(C=O)coc12
selectivity ratio: 556

compound: COc1c(C(=O)c2cnc3nc4ccccc4n3c2)c(O)c(OC)c2occc12
selectivity ratio: 415

compound: CCC[C@H](NC(=O)[C@@H]1[C@H]2CCC[C@H]2CN1C(=O)[C@@H](NC(=O)[C@@H](NC(=O)c1cnccn1)C1CCCCC1)C(C)(C)C)C(=O)C(=O)NC1CC1
selectivity ratio: 1200

compound: COc1c(C(=O)C2=CN3C=CSC3N=C2)c(O)c(OC)c2occc12 (configuration not stated)
selectivity ratio: 371

compound: COc1c(C(=O)C2=CN3C(=CN=C2)Nc2ccccc23)c(O)c(OC)c2occc12
selectivity ratio: 577

compound: COc1c(C(=O)/C=C/Nc2ccncc2)c(O)c(OC)c2occc12
selectivity ratio: 441

compound: NCc1nc2ccccc2[nH]1
selectivity ratio: 515

----------
Collected selectivity ratio values appear next to each entry.
# assay-explanation: Therapeutic index, ratio of toxic dose of drug for 50% of the population TD50 to minimum effective dose ED50 of the population
# measurement-parameters: read-out: Ratio TD50/ED50

molecule: COc1c(C(=O)C2=CN3C=CSC3N=C2)c(O)c(OC)c2occc12 (stereo not given)
selectivity ratio: 22600
--
molecule: COc1c(C(=O)C2=CN3C=CC=CC3N=C2)c(O)c(OC)c2occc12 (stereo not given)
selectivity ratio: 23500
--
molecule: COc1c(C(=O)C2=CN3C=CNC=C3N=C2)c(O)c(OC)c2occc12
selectivity ratio: 20000
--
molecule: COc1c(C(=O)C2=CN3OC(C)=NC3N=C2)c(O)c(OC)c2occc12 (stereo not given)
selectivity ratio: 7690
--
molecule: COc1c(C(=O)C2=CN3C(=CN=C2)Nc2ccccc23)c(O)cc2occc12
selectivity ratio: 23500
--
molecule: COc1c(C(=O)c2cnc3nc4ccccc4n3c2)c(O)c(OC)c2occc12
selectivity ratio: 1.14e+06
--
molecule: COc1c(C(=O)C2=CN3C(=CN=C2)Nc2ccccc23)c(O)c(OC)c2occc12
selectivity ratio: 21700
--
molecule: COc1c2occc2c(OC)c2c(=O)c(C=O)coc12
selectivity ratio: 32600
--
molecule: COc1c(C(=O)/C=C/Nc2ccncc2)c(O)c(OC)c2occc12
selectivity ratio: 1260
--
molecule: NCc1nc2ccccc2[nH]1
selectivity ratio: 1760

----------
Some molecules, each annotated with its measured pIC50.
# tested-system: Human immunodeficiency virus type 1 reverse transcriptase (Human immunodeficiency virus 1, UniProt Q72547)
# assay-explanation: Inhibition of recombinant HIV1 reverse transcriptase in cell free Quan-T-RT by scintillation proximity assay
pIC50: −log10 of the molar value.
assay-metric: pIC50

molecule: NCc1nc2ccccc2[nH]1
assay-metric: pIC50
endpoint-value: 5.29
--
molecule: COc1c(C(=O)C2=CN3C=CSC3N=C2)c(O)c(OC)c2occc12 (stereo not given)
assay-metric: pIC50
endpoint-value: 4.82
--
molecule: COc1c(C(=O)C2=CN3C=CC=CC3N=C2)c(O)c(OC)c2occc12 (stereo not given)
assay-metric: pIC50
endpoint-value: 4.79
--
molecule: COc1c(C(=O)/C=C/Nc2ccncc2)c(O)c(OC)c2occc12
assay-metric: pIC50
endpoint-value: 5.32
--
molecule: COc1c(C(=O)C2=CN3C=CNC=C3N=C2)c(O)c(OC)c2occc12
assay-metric: pIC50
endpoint-value: 4.84

----------
# IC50 annotations
# tested-system: Human immunodeficiency virus type 1 reverse transcriptase (Human immunodeficiency virus 1)
# assay-explanation: Inhibition of recombinant HIV1 reverse transcriptase in cell free Quan-T-RT by scintillation proximity assay

compound: COc1c(C(=O)C2=CN3OC(C)=NC3N=C2)c(O)c(OC)c2occc12 (stereo not given)
IC50 (µM): 0.0003
//
compound: COc1c(C(=O)c2cnc3nc4ccccc4n3c2)c(O)c(OC)c2occc12
IC50 (µM): 25.7
//
compound: COc1c(C(=O)C2=CN3C(=CN=C2)Nc2ccccc23)c(O)cc2occc12
IC50 (µM): 47.5
//
compound: COc1c2occc2c(OC)c2c(=O)c(C=O)coc12
IC50 (µM): 17.5
//
compound: COc1c(C(=O)C2=CN3C(=CN=C2)Nc2ccccc23)c(O)c(OC)c2occc12
IC50 (µM): 9.44

----------
# Tested on: Hepacivirus hominis
# assay-explanation: Inhibition of HCV NS3/4A protease activity after 48 hrs by RT-PCR
Catalogue of IC90 readings, one per entry.

molecule: COc1c(C(=O)/C=C/Nc2ccncc2)c(O)c(OC)c2occc12
units: nM
IC90: 2310

molecule: COc1c(C(=O)c2cnc3nc4ccccc4n3c2)c(O)c(OC)c2occc12
units: nM
IC90: 1320

molecule: NCc1nc2ccccc2[nH]1
units: nM
IC90: 2120

molecule: CCC[C@H](NC(=O)[C@@H]1[C@H]2CCC[C@H]2CN1C(=O)[C@@H](NC(=O)[C@@H](NC(=O)c1cnccn1)C1CCCCC1)C(C)(C)C)C(=O)C(=O)NC1CC1
units: nM
IC90: 450

molecule: COc1c(C(=O)C2=CN3C=CSC3N=C2)c(O)c(OC)c2occc12 (configuration not stated)
units: nM
IC90: 1120

molecule: COc1c2occc2c(OC)c2c(=O)c(C=O)coc12
units: nM
IC90: 796

molecule: COc1c(C(=O)C2=CN3C(=CN=C2)Nc2ccccc23)c(O)c(OC)c2occc12
units: nM
IC90: 955

----------
# Test system: GOTO
# assay-explanation: Cytotoxicity against human GOTO cells by MTT assay
# Type: functional, cell-based
pIC50: −log10 of the molar value.

compound: COc1c(C(=O)C2=CN3C(=CN=C2)Nc2ccccc23)c(O)cc2occc12
pIC50: 10.54
//
compound: COc1c(C(=O)/C=C/Nc2ccncc2)c(O)c(OC)c2occc12
pIC50: 10.60
//
compound: COc1c(C(=O)C2=CN3C(=CN=C2)Nc2ccccc23)c(O)c(OC)c2occc12
pIC50: 10.48
//
compound: COc1c(C(=O)C2=CN3C=CNC=C3N=C2)c(O)c(OC)c2occc12
pIC50: 10.59
//
compound: COc1c(C(=O)C2=CN3C=CC=CC3N=C2)c(O)c(OC)c2occc12 (stereo unspecified)
pIC50: 10.48
//
compound: COc1cccc2c1C(=O)c1c(O)c3c(c(O)c1C2=O)C[C@@](O)(C(=O)CO)C[C@@H]3O[C@H]1C[C@H](N)[C@H](O)[C@H](C)O1
pIC50: 8.33
//
compound: COc1c(C(=O)c2cnc3nc4ccccc4n3c2)c(O)c(OC)c2occc12
pIC50: 10.56
//
compound: COc1c2occc2c(OC)c2c(=O)c(C=O)coc12
pIC50: 10.56
//
compound: COc1c(C(=O)C2=CN3OC(C)=NC3N=C2)c(O)c(OC)c2occc12 (stereo unspecified)
pIC50: 10.55
//
compound: NCc1nc2ccccc2[nH]1
pIC50: 10.58
//
compound: COc1c(C(=O)C2=CN3C=CSC3N=C2)c(O)c(OC)c2occc12 (stereo unspecified)
pIC50: 10.55
